Molecular target: Maltase-glucoamylase (Homo sapiens, UniProt O43451)
Sequence (O43451 whole entry, the tested form may be a part): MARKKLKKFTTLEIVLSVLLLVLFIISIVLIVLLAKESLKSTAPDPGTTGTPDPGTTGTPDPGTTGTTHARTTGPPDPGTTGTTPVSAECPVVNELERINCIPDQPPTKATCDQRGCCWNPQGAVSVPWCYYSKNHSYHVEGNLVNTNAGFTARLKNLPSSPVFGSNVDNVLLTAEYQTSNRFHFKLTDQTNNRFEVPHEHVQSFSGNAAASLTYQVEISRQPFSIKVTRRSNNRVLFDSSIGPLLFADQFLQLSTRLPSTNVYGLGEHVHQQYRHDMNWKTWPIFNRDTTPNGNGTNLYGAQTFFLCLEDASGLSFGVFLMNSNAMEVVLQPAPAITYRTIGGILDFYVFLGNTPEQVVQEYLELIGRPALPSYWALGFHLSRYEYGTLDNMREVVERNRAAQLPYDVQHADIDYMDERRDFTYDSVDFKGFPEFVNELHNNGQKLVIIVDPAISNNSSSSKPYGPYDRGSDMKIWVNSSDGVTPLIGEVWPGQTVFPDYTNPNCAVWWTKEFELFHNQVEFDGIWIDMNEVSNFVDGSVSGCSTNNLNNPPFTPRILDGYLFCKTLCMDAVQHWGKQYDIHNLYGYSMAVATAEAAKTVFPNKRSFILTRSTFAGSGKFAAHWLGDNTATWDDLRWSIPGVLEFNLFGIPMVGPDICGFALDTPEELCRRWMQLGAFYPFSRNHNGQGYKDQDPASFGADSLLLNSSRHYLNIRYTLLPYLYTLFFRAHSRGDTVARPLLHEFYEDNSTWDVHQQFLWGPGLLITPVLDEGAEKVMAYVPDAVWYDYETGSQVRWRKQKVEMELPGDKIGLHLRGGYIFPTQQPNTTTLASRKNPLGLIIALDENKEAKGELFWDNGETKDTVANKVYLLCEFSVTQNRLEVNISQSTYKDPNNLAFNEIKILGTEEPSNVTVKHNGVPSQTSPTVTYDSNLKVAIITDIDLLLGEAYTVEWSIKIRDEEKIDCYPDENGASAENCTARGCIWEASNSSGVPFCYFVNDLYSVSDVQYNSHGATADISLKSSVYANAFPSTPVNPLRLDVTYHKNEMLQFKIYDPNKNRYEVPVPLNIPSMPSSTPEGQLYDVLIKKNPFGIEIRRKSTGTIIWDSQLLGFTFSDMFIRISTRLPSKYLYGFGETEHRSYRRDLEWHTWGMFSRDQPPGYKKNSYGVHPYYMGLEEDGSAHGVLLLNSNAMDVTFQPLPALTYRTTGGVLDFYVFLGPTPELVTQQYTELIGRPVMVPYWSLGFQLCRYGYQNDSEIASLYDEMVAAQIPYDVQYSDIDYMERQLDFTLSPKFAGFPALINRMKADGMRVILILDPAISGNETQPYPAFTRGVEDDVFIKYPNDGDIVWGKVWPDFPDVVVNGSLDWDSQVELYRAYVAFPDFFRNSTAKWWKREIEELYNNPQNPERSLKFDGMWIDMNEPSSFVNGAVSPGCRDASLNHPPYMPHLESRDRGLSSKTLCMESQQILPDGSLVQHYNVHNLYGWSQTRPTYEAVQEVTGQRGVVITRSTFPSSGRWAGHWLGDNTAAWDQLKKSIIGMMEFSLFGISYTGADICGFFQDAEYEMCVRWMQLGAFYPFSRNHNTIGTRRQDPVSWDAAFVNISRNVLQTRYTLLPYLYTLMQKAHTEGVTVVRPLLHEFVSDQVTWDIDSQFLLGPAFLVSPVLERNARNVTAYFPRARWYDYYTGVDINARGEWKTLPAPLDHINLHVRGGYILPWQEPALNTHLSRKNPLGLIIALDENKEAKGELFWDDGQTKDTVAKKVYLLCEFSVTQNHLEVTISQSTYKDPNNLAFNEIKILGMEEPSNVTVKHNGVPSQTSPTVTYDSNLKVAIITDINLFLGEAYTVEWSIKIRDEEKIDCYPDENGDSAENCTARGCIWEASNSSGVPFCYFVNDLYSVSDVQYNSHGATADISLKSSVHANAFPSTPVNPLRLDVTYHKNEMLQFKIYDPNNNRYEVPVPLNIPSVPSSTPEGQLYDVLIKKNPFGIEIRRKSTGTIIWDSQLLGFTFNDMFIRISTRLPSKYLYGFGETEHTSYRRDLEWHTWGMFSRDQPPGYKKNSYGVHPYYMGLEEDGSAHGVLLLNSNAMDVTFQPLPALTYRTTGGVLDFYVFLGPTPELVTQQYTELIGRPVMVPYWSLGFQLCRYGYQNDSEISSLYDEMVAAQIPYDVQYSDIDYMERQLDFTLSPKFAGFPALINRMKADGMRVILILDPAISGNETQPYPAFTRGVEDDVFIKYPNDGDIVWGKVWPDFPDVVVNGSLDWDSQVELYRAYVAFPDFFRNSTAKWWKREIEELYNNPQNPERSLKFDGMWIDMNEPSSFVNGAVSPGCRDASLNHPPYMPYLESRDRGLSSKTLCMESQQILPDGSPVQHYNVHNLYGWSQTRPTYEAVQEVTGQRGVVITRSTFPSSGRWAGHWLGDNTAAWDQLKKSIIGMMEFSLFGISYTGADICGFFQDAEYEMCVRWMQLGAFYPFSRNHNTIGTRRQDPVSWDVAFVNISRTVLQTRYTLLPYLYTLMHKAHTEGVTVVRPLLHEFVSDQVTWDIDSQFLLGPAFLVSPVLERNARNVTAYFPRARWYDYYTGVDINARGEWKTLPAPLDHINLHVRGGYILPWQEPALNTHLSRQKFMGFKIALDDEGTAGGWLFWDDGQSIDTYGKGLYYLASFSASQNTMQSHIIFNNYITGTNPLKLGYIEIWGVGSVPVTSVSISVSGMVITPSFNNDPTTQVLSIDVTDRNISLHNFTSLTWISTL
Test: Inhibition of human recombinant N-terminal domain of maltase-glucoamylase after 60 mins by glucose oxidase assay
MEASUREMENT NAME: pKi
API: returns pKi as number; meaning -log10 of concentration in mol/L.

Reported pKi for CO[C@@H]([C@H](O)[C@@H](O)CO)[C@H](O)C[S@+]1C[C@@H](O)[C@H](O)[C@H]1CO was 6.30
